Kindly state concentration at 240 min for each of the entries shown.
Test: Pharmacokinetics: plasma, brain, CSF
Conditions: male, CD-1, mouse, CSF, intraperitoneal, 0.2 mg/kg
Give bare numbers, in ng/mL.

Cc1cc(C(=O)NC(C)(c2ccco2)c2ccco2)nn1-c1cccc(C(F)(F)F)c1 :: 0

// switching to the query compound
Task item: Which value of concentration at 240 min has been reported for `COC(=O)[C@@](C)(NC(=O)c1cc(C)n(-c2cccc(C(F)(F)F)c2)n1)c1cccs1` in the records?
Reply: 0

====

Biological target: hCB1 (Homo sapiens, UniProt P21554)
Sequence (P21554 whole entry): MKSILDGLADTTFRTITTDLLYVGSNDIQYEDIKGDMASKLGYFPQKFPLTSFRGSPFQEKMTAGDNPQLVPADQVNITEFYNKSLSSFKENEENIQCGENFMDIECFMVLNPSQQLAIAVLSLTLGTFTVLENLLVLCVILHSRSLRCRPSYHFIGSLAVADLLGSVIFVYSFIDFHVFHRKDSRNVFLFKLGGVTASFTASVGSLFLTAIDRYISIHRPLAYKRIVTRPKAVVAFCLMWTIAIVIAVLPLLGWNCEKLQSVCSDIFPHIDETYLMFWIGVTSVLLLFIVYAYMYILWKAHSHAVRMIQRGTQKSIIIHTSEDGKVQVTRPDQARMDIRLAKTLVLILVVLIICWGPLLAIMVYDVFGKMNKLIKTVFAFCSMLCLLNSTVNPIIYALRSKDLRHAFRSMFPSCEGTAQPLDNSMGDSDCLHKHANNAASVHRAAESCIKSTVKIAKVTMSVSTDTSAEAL
Assay: Lance Ultra cAMP accumulation assay, CHO cells;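 note: human CB1R stably expressed in CHO cells, ligands co-incubated with forskolin at room temperature, read-out is lowering of forskolin-stimulated cAMP accumulation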
Format: cell-based
Parameters: expressed in transfected cells
Kindly state pEC50 for each of the entries shown.
One number for each entry, as −log10 of the molar value.

Examples with answers:
COC(=O)C(NC(=O)c1cc(C)n(-c2cccc(C(F)(F)F)c2)n1)c1cccs1 (stereo not shown) [‘60154] :: 6.45
Cc1cc(C(=O)NC(C)(c2ccco2)c2ccco2)nn1-c1cccc(C(F)(F)F)c1 [‘4936] :: 8.32
COC(=O)[C@](C)(NC(=O)c1cc(C)n(-c2cccc(C(F)(F)F)c2)n1)c1cccs1 [‘8690] :: 6.33

// switching to the query compound
Task item: Which value of pEC50 has been reported for COC(=O)C(C)(NC(=O)c1cc(C)n(-c2cccc(C(F)(F)F)c2)n1)c1cccs1 (stereo not shown) [‘4042] in the records?
Reply: 8.48

====

Target: hCB1 (Homo sapiens)
Test: bioSensAll ebBRET signaling profiling, hCB1
Assay type: cell-based
Design: host or cells: HEK293SL cells, transient PEI transfection
Settings: Log [Compound] (M) -8.68787; single replicate values, FigS6a
Kindly state GoB hCB1 for each of the entries shown.
Answers are plain numbers.

Examples with answers:
Cc1cc(C(=O)NC(c2ccccc2)c2ccco2)nn1-c1cccc(C(F)(F)F)c1 (centres unmarked) :: -1.683
Cc1cc(C(=O)NC(c2ccco2)c2ccco2)nn1-c1cccc(C(F)(F)F)c1 :: 3.406
Cc1c(C(=O)OCC2CSc3ccccc3O2)cnn1Cc1ccccc1 (centres unmarked) :: -5.371
Cc1nn(Cc2ccc(Cl)cc2)c(C)c1C(=O)OCC1CSc2ccccc2O1 (centres unmarked) :: -0.5617

// switching to the query compound
Task item: Which value of GoB hCB1 has been reported for Cc1cc(C(=O)N2CC3(CCC3)[C@@H]2[C@H]2CCCO2)nn1-c1cccc(C(F)(F)F)c1 (single isomer, unassigned) in the records?
Reply: -1.521

====

System: hCB1 (Homo sapiens, UniProt P21554) | Read-out: pKi
Give bare numbers, as −log10 of the molar value.

Cc1cc(C(=O)NC(C)(c2ccco2)c2ccco2)nn1-c1cccc(C(F)(F)F)c1 [‘4936] :: 8.40

// switching to the query compound
Task item: Which value of pKi has been reported for COC(=O)[C@@](C)(NC(=O)c1cc(C)n(-c2cccc(C(F)(F)F)c2)n1)c1cccs1 [‘1350] in the records?
Reply: 9.49

====

Assay: in vitro
Details: mouse, plasma
Kindly state half-life at 1 µM for each of the entries shown.
Answers are plain numbers, in min.

CC(C)[N+](C)(CCOC(=O)C1c2ccccc2Oc2ccccc21)C(C)C [Propantheline, reference compound] :: 28

// switching to the query molecule
Task item: Which value of half-life at 1 µM has been reported for `COC(=O)[C@@](C)(NC(=O)c1cc(C)n(-c2cccc(C(F)(F)F)c2)n1)c1cccs1` in the records?
Reply: 41

Each recorded value in this set is attributed to paper PMC11882969.
